- Tested on: P. falciparum 3D7 trophozoites
- METHOD DESCRIPTION: Metabolomic fingerprint profiling LC-MS
- Type: cell-based, Plasmodium falciparum
- STUDY CONDITIONS: metabolite ornithine, S2 Table Metabolomics
Label rule, in plain words: ornithine of 0.1 and up is 1.0, under 0.1 is 0.0.

1. CC(C)(C)c1ccc(O)c(CNC2CCCCC2)c1
0.0
2. CCCCCC(=O)N1c2ccccc2N=C2CC(c3ccc(OC)c(OC)c3)CC(O)=C2C1c1ccc(C(F)(F)F)cc1 (stereo not shown)
0.0
3. CCCN(CCC)CC(O)COc1ccccc1C(=O)Nc1ccccc1 (stereo not shown)
0.0
4. COc1cccc(NC(=O)[C@H](C(C)C)n2c(=O)[nH]c3ccccc3c2=O)c1
1.0
5. COc1ccc(C2=C(c3ccc(OC)cc3)C3(c4ccccc4)C(=O)C2(c2ccccc2)C2C(=O)N(c4ccc(C)cc4)C(=O)C23)cc1 (stereo not shown)
0.0
6. CNCCCNc1ccnc2cc(Cl)ccc12
0.0
7. Cc1cc(C)cc(Nc2cc(C)nc3nc(C(F)(F)F)nn23)c1
0.0
8. COc1ccc(C(=O)Nc2nonc2-c2ccc(OC)c(OC)c2)cc1Cl
1.0
9. Cc1cc(C)c2c(c1)OCN(Cc1ccccc1Cl)C2
0.0
10. COc1ccc2c(c1)OC(O)(C(F)(F)C(F)(F)F)CC2=O (stereo not shown)
1.0
11. CCOC(=O)c1cn(CC)c2cc(N(C)CCc3ccc(OC)c(OC)c3)c(F)cc2c1=O
1.0
12. COc1ccc(NC(=O)C2c3ccccc3C(=O)N(CC(C)C)C2c2cccs2)cc1Cl (stereo not shown)
1.0
13. CCCc1c(CC)c(=N)c2ccccc2n1C
0.0
14. Cc1cc(NCCN2CCCCC2)c2ccc3ccccc3c2n1
0.0
15. CCOC(=O)c1cnc2c(C)cc(C)cc2c1Nc1ccc(OC)c(OC)c1
0.0
16. COc1ccc(-c2nc3cc(Cc4ccc5[nH]c(-c6ccc(OC)cc6)nc5c4)ccc3[nH]2)cc1
1.0
17. O=C(O)C1Cc2c([nH]c3ccccc23)C(c2ccc(Cl)cc2Cl)N1 (stereo not shown)
0.0
18. COc1ccc2c(=O)cc(C(Cl)(Cl)Cl)oc2c1
1.0
